B1: MGC27345 (parent)
chain: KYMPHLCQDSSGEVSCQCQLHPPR

Variants of: B1
Assay: protein stability index of a GFP-peptide fusion (GPS, HEK-293T) (PSI 1-6); higher = more stable;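 further: lentivirally expressed fusions sorted by FACS into six bins by GFP to DsRed ratio, PSI derived from sequencing read proportions per bin multiplied by bin number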
Conditions: c terminus: a fixed tail appended
VALUE TYPE: protein stability index

>>> value_measured("KYMPHTCQDSSGEVSCQCQLHPPR [L6T]")
2.34
>>> value_measured("KYMPYLCQDSSGEVSCQCQLHPPR [H5Y]")
1.98
>>> value_measured("KYTPHLCQDSSGEVSCQCQLHPPR [M3T]")
1.96
>>> value_measured("KYMPHLCQDSSGEVSCQMQLHPPR [C18M]")
2.54
>>> value_measured("KYMPHLCQDSSGEVSCQLQLHPPR [C18L]")
3.35
>>> value_measured("KYMPHLCQDSSGEVSCQCQLHPWR [P23W]")
2.34
>>> value_measured("KYMPCLCQDSSGEVSCQCQLHPPR [H5C]")
2.92
>>> value_measured("KEMPHLCQDSSGEVSCQCQLHPPR [Y2E]")
1.66

Req: For the variant KYMPHLCQDSSGEVSCQCQLHPPC [R24C] , what protein stability index is on record?
Resp: 3.86

Req: Next record, please: KYMPHLCQDSSGEVSCQCQVHPPR [L20V]
Resp: 2.17

Req: Next record, please: RYMPHLCQDSSGEVSCQCQLHPPR [K1R]
Resp: 2.24
